# targetDesc: T1, EsCas13d, nuclease-dead (Eubacterium siraeum, UniProt B0MS50, R295A;H300A;R849A;H854A)
# T1 sequence: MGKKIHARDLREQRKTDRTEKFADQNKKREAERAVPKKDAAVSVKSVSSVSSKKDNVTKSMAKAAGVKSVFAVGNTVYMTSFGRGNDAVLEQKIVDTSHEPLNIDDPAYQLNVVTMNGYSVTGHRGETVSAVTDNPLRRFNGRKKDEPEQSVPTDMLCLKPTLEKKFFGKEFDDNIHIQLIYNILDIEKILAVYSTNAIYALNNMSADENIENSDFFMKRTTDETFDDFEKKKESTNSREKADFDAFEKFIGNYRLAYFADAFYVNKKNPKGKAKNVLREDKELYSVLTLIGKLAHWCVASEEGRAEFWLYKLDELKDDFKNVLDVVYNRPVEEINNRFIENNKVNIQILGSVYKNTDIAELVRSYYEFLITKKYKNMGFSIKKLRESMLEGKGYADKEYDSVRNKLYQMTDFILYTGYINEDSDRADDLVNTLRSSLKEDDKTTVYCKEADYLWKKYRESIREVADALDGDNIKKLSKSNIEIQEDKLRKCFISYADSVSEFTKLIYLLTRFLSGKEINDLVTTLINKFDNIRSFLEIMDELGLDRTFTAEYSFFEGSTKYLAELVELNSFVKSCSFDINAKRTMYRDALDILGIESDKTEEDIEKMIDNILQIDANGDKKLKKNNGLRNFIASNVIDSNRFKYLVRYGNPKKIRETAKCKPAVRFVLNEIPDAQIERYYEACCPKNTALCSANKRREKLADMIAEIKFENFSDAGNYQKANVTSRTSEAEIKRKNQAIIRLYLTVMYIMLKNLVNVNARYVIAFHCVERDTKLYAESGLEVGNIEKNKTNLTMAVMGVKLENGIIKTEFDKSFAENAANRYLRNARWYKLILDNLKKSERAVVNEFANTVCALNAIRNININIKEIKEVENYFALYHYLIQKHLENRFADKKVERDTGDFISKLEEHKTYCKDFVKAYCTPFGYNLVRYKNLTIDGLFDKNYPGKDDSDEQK
# testMethodNotes: crRNA (strand 1, pre-loaded); Mg2+; 40 mM Tris-HCl pH 7.5, 150 mM NaCl, 6 mM MgCl2, 1 mM DTT, 0.1% Tween-20, 0.2 mg/ml BSA; 25 C; 10 min per concentration, then washed
# conditionLabel: tags: His6-TwinStrep-SUMO cleaved; N-terminal SNAP kept (SNAP-Surface 488); label: 3' end held by stalled T7 RNA polymerase
parameter: pKd
# log scale: pKd equals minus log10 of the concentration in mol/L

Solved cases (2 shown):
binder	recordedValue
target 1 insC 3' of 3 (mixed) RNA 1: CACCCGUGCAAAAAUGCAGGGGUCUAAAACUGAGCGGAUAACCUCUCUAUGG RNA 2: GGGAAUGGAUCCACAUCUACGAAUUCGUACCAUAGAGAGGUUAUCCGCUCCACCGAGAUCGGAAGAGCACACGU	7.90
target 1 C7A,A20G (mixed) RNA 1: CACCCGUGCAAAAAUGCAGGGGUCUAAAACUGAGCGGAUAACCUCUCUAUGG RNA 2: GGGAAUGGAUCCACAUCUACGAAUUCGUACCGUAGAGAGGUUAUACGCUCACCGAGAUCGGAAGAGCACACGU	7.35

What does the record list as pKd for target 1 A1U,C2U (mixed) RNA 1: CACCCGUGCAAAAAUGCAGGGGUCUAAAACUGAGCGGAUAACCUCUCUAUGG RNA 2: GGGAAUGGAUCCACAUCUACGAAUUCGUACCAUAGAGAGGUUAUCCGCUUUCCGAGAUCGGAAGAGCACACGU ?
8.02

Given the binder target 3 insG 3' of 22,insA 3' of 22 (mixed) RNA 1: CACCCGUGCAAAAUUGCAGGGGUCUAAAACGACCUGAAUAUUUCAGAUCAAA RNA 2: GGGAAUGGAUCCACAUCUACGAAUUCGUUUGAUUGAUCUGAAAUAUUCAGGUCUGCAGAUCGGAAGAGCACACGU , what is its reported pKd?
7.38

Ref: paper PMC10786891
